Entries and their parasite growth remaining, % of DMSO control (lower = more inhibition)
Test: qHTS profiling of the MIPE4 collection as inhibitors of Plasmodium falciparum (DD2) proliferation (AID 743345)
Settings: P. falciparum Dd2 in erythrocytes, SYBR Green DNA, 72 h; at 28.5 µM (top of the series) unless noted
Lab book: enter the figure in %, no units written.

See these solved cases before continuing.
CC(C)(Sc1cc(C(C)(C)C)c(O)c(C(C)(C)C)c1)Sc1cc(C(C)(C)C)c(O)c(C(C)(C)C)c1 ... 26.6
Nc1[nH]c(=O)ncc1F ... 104
CN(C)CCc1c[nH]c2ccc(C[C@H]3COC(=O)N3)cc12 ... 92.5
CS(=O)(=O)c1ccc([C@@H](O)[C@@H](CO)NC(=O)C(Cl)Cl)cc1 ... 51.5
CCOC(=O)[C@H](CCc1ccccc1)N[C@H]1CS[C@H](c2cccs2)CN(CC(=O)O)C1=O ... 58.9
COc1ccc(C(=O)CC(=O)c2ccc(C(C)(C)C)cc2)cc1 ... 88.2
CN1CCCC(n2nc(Cc3ccc(Cl)cc3)c3ccccc3c2=O)CC1 (stereo not given) ... 14
O=C(NCC1CN(c2ccc(N3CCOCC3=O)cc2)C(=O)O1)c1ccc(Cl)s1 (stereo not given) ... 94.4
CCOC(=O)c1ccc(OC(=O)CCCCCN=C(N)N)cc1 ... 89.5

Noted for Nc1nc(N)c2nc(CNc3ccc(C(=O)NC(CCC(=O)O)C(=O)O)cc3)cnc2n1 (stereo not given) : its parasite growth remaining, % of DMSO control (lower = more inhibition) reads 7.65

###

System: PAD
Experiment: qHTS profiling for inhibitors of Plasmodium falciparum proliferation (AID 504749); further: nearly all actives have a fitted effect of over 60% in size; further: potency means the concentration at half of the fitted maximal effect
Conditions: P. falciparum in erythrocytes, SYBR Green DNA, 72 h; series mostly up to 28.7 µM
Inconclusive results are not listed. Calls of active or inactive are those of the source. Calls follow the shape of the dose curve; as a rule, active = well fitted inhibition curve with a large enough effect; inconclusive = small, poorly fitted or top-dose-only effect; inactive = flat fitted curve, though single readings scatter.
ENDPOINT LABEL: Potency

Consider the worked cases shown below.
CC(C)Cn1cnc2c(N)nc3ccccc3c21 ... inactive
N[C@@H](C(=O)N[C@@H]1C(=O)N2C(C(=O)O)=C(Cl)CS[C@H]12)c1ccccc1 ... inactive
COc1ccc(-c2ccc3cc(C(=O)O)ccc3c2)cc1C12CC3CC(CC(C3)C1)C2 ... inactive
COc1c(N2CCNC(C)C2)c(F)cc2c(=O)c(C(=O)O)cn(C3CC3)c12 (centres undefined) ... inactive
COc1cc(NCc2ccc3nc(N)nc(N)c3c2C)cc(OC)c1OC ... 0.316 µM (active)

Briefly, Potency measured for CCOCC(O)COc1ccc(NC(=O)CC[S+](C)C)cc1 (centres undefined) : inactive

The reported value for CCOC(=O)c1ccc(C#Cc2ccc3c(c2)C(C)(C)CCS3)nc1 in terms of Potency is inactive

Recorded Potency (compound NC(N)=NC(N)=NCCc1ccccc1 ): inactive

Form: compound = CNC(=O)c1cc(Oc2ccc(NC(=O)Nc3ccc(Cl)c(C(F)(F)F)c3)cc2)ccn1 ; Potency = 2.24 µM (active)

Entry COc1cc([C@@H]2c3cc4c(cc3[C@H](O)[C@H]3COC(=O)[C@H]23)OCO4)cc(OC)c1OC , Potency reported as 3.55 µM (active)

Kindly note the recorded Potency for N=C(N)c1ccc(OCCCCCOc2ccc(C(=N)N)cc2)cc1 , which is 1.41 µM (active)

Lookup result for C[C@@H](NCCCc1cccc(C(F)(F)F)c1)c1cccc2ccccc12 ; measured Potency: 2 µM (active)

// field: Potency; key: S=P(N1CC1)(N1CC1)N1CC1 ; value = inactive

Looking up O=NN(CCCl)C(=O)NC1CCCCC1 , I found its Potency recorded as inactive

Reported Potency for CC(C)(C)C(=O)OCOP(=O)(COCCn1cnc2c(N)ncnc21)OCOC(=O)C(C)(C)C was inactive

# compound CCn1cc(C(=O)O)c(=O)c2cc(F)c(N3CCNCC3)nc21 ; its Potency = inactive

The value of Potency measured for the compound C1CCC(C(CC2CCCCN2)C2CCCCC2)CC1 (centres undefined) turned out to be 6.31 µM (active)

For reference, reported Potency for CNCC[C@H](Oc1cccc2ccccc12)c1cccs1 stands at 11.2 µM (active)

compound O=S(=O)(O)CCS , Potency observed: inactive

CCCCOc1ccc(CC(=O)NO)cc1 yielded Potency of 1.41 µM (active)

Looking up C#CCN[C@@H]1CCc2ccccc21 , I see its Potency listed as inactive
